systemName: Metabotropic glutamate receptor 8 (Rattus norvegicus) (UniProt P70579)
Sequence (P70579 whole entry, looked up): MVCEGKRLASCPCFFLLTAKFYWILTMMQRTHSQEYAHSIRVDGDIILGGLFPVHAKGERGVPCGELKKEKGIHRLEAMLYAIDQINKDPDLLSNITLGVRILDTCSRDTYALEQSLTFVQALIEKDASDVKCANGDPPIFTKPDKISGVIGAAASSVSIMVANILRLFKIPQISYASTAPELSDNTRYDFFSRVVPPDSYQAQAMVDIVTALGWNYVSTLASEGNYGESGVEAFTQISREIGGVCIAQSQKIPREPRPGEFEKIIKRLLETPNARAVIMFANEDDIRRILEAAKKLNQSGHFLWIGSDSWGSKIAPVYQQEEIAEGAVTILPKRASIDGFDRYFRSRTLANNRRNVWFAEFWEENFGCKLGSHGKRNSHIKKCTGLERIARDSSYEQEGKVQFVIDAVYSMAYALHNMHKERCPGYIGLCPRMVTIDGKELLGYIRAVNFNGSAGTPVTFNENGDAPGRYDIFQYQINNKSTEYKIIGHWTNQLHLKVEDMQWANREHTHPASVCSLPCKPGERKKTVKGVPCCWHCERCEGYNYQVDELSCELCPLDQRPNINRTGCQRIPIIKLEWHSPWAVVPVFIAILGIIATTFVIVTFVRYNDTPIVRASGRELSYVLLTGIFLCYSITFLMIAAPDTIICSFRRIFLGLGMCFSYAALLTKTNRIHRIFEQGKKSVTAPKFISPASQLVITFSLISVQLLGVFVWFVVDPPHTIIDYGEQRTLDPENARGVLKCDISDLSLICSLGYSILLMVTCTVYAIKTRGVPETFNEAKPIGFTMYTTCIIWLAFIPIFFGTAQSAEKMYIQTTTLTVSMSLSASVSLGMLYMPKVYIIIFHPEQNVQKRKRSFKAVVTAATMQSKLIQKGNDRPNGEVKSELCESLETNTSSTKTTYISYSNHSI
assaySummary: mGluR8 Gi/Go-coupled signaling modulation – cell-based, rat, thallium flux, HTS, primary screen (AID 488969)
runParameters: HEK293 rat mGluR8, GIRK thallium flux, FluoZin2; at 10 µM; stronger effect = higher value; submaximal glutamate (EC20) added with thallium
Over roughly 110,000 compounds, “z-score” has its median near -0.1; the highest 2% begin near 2. Only a selection was taken, and the highest values are over-represented in it overall.
z-score reference
Enter a number only.

For orientation, consider the following solved cases.
CCCCCCN1C2=NCCN2c2ccccc21 ... 7.63
NC(=O)c1cccnc1Sc1ccc(Cl)cc1 ... -0.431
O=C(Nc1ccc([N+](=O)[O-])cn1)c1cc(-c2cccc(Cl)c2)nc2ccccc12 ... -0.658

Inquiry: Can you look up z-score on Metabotropic glutamate receptor 8 (Rattus norvegicus) (UniProt P70579) for Cc1ccc(-n2nnnc2SC(C)C(=O)NCC(=O)Nc2ccc(F)c(F)c2F)c(C)c1 (configuration not stated) ?
Reply text: -0.287

Inquiry: Can you look up z-score on Metabotropic glutamate receptor 8 (Rattus norvegicus) (UniProt P70579) for OC(CN1C2=NCCCN2c2ccccc21)c1ccc(Cl)cc1 (configuration not stated) ?
Reply text: 0.782

Inquiry: Can you look up z-score on Metabotropic glutamate receptor 8 (Rattus norvegicus) (UniProt P70579) for `COc1ccc(CCNC(=O)COc2ccc(S(=O)(=O)NCC(C)C)cc2Cl)cc1OC` ?
Reply text: -0.464

Inquiry: Can you look up z-score on Metabotropic glutamate receptor 8 (Rattus norvegicus) (UniProt P70579) for OC(CN1C2=NCCCN2c2ccccc21)c1ccc(Br)cc1 (configuration not stated) ?
Reply text: 3.3

Inquiry: Can you look up z-score on Metabotropic glutamate receptor 8 (Rattus norvegicus) (UniProt P70579) for `Cc1nc(=O)c(-c2ccccc2)c(C)n1-c1ccc(O)cc1` ?
Reply text: -1.56

---

systemName: Metabotropic glutamate receptor 8 (Rattus norvegicus) (UniProt P70579)
assaySummary: mGluR8 Gi/Go-coupled signaling modulation – cell-based, rat, thallium flux, HTS, primary screen (AID 488969)
runParameters: HEK293 rat mGluR8, GIRK thallium flux, FluoZin2; at 10 µM; stronger effect = higher value; submaximal glutamate (EC20) added with thallium
Over roughly 110,000 compounds, “z-score” has its median near -0.1; the highest 2% begin near 2. The full list was thinned out, with the highest values kept by preference.
recordedMetric: z-score
Enter a number only.

For orientation, consider the following solved cases.
O=C(Cn1[nH]c(=O)c2ccccc2c1=O)NCc1cccnc1 ... -0.377
CCOc1ccc2c(c1)-c1c(ssc1=S)C(C)(C)N2C ... -0.11
CC(/C=N/n1c(-c2ccccc2)n[nH]c1=S)=C\c1ccco1 ... 6.02
COc1cc2c(cc1NCc1ccccn1)oc1ccccc12 ... -0.0883
CN1CCN(C(=S)Nc2cccc(C(F)(F)F)c2)CC1 ... -0.213
CC(Oc1ccc(Cl)cc1Cl)C(=O)NCCN1CCOCC1 (centres undefined) ... 0.00607

Inquiry: # query: z-score of entry `CCCn1nc(C(=O)NCCN2CCOCC2)c2ccccc2c1=O`
Reply text: 0.608

Inquiry: # query: z-score of entry `CC(=O)/C(=N\Nc1cccc(Cl)c1)Sc1cccc2cccnc12`
Reply text: 0.635

Inquiry: # query: z-score of entry `Cc1nn(-c2ccccc2)c(C)c1/C=N/n1c(-c2ccc(Cl)cc2)n[nH]c1=S`
Reply text: 0.338

Inquiry: # query: z-score of entry `Cc1noc(C)c1C(=O)NCCc1ccc(Cl)cc1`
Reply text: -0.377

Inquiry: # query: z-score of entry `S=c1[nH]nc(-c2cc(-c3ccco3)[nH]n2)n1-c1ccccc1`
Reply text: -0.141

Inquiry: # query: z-score of entry `O=S(=O)(Nc1cc(Cl)ccn1)c1ccc(Cl)cc1`
Reply text: 0.404

Inquiry: # query: z-score of entry `Cc1sc2nc(CN3CCCC3)nc(N3CCN(S(=O)(=O)c4cccs4)CC3)c2c1C`
Reply text: 4.12

Inquiry: # query: z-score of entry `Cc1ccc(OCc2nnc(SCC(=O)c3cccs3)n2-c2ccccc2)cc1C`
Reply text: 0.316

---

systemName: Metabotropic glutamate receptor 8 (Rattus norvegicus)
assaySummary: mGluR8 Gi/Go-coupled signaling modulation – cell-based, rat, thallium flux, HTS, primary screen (AID 488969)
runParameters: HEK293 rat mGluR8, GIRK thallium flux, FluoZin2; at 10 µM; stronger effect = higher value; submaximal glutamate (EC20) added with thallium
Whole data set: some 110,000 compounds, median “z-score” near -0.1, cut for the highest 2% near 2. Only a selection was taken, and the highest values are over-represented in it overall.
z-score reference
Enter a number only.

Inquiry: # query: z-score of entry CCOC(=O)N1CCC(N2C(=O)c3cc(C(=O)NC4CCCCC4)ccc3C2O)CC1 (centres undefined)
Reply text: -0.198

Inquiry: # query: z-score of entry `O=C(O)CCSc1nc2ccccc2n1CCOc1ccccc1`
Reply text: 0.105

Inquiry: # query: z-score of entry COc1ccc(C2CC(c3ccc(Cl)cc3Cl)Nc3nc(N)nn32)cc1 (centres undefined)
Reply text: 1.46

Inquiry: # query: z-score of entry `Cc1cc(NC(=O)CSc2nnc(-c3cccs3)n2N)no1`
Reply text: -0.647

---

systemName: Metabotropic glutamate receptor 8 (Rattus norvegicus) (UniProt P70579)
assaySummary: mGluR8 Gi/Go-coupled signaling modulation – cell-based, rat, thallium flux, HTS, primary screen (AID 488969)
runParameters: HEK293 rat mGluR8, GIRK thallium flux, FluoZin2; at 10 µM; stronger effect = higher value; submaximal glutamate (EC20) added with thallium
Whole data set: some 110,000 compounds, median “z-score” near -0.1, cut for the highest 2% near 2. This is one part of a sample in which the highest values are shown more often than they occur. Active and inactive are the calls of the source.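 How the source made its calls: active means z-score in the third read window above 3 or below -3; inactive means the rest.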
recordedMetric: z-score

For orientation, consider the following solved cases.
COC(=O)c1ccc(NC(=S)NC(=O)c2c(Cl)cnn2C)cc1 ... 10.1 (active)
CC(C)C(=O)NCCSc1c[nH]c2ccccc12 ... -0.143

Moving on to the next molecule.
Inquiry: # query: z-score of entry `Clc1ccc(-n2ncc3c(NCc4ccc5c(c4)OCO5)ncnc32)cc1`
Reply text: -0.426

---

systemName: Metabotropic glutamate receptor 8 (Rattus norvegicus) (UniProt P70579)
assaySummary: mGluR8 Gi/Go-coupled signaling modulation – cell-based, rat, thallium flux, HTS, primary screen (AID 488969)
runParameters: HEK293 rat mGluR8, GIRK thallium flux, FluoZin2; at 10 µM; stronger effect = higher value; submaximal glutamate (EC20) added with thallium
Whole data set: some 110,000 compounds, median “z-score” near -0.1, cut for the highest 2% near 2. Only a selection was taken, and the highest values are over-represented in it overall.
// label = Met if z-score is not less than 0.06, otherwise Not met

Below are worked cases with known answers.
CCCC12CN3CCN(CC(C3)/C1=N\NC(=O)Nc1ccccc1)C2 ... Not met
COc1ccc(/C=C2/SC(=O)N(CC(O)Cn3c4ccccc4c4ccccc43)C2=O)cc1 (configuration not stated) ... Not met
FC(F)(F)c1cccc(NC(=S)NCc2ccccc2)c1 ... Met
CC(C)C(NC(=O)c1ccccc1NC(=O)c1ccco1)C(=O)O (configuration not stated) ... Not met
FC(F)(F)c1cccc(NC(=S)NNC(=S)NCc2ccccc2)c1 ... Not met

Inquiry: # check: z-score of `Cc1nc2ccc(F)cc2cc1C(=O)NCc1ccco1` is greater than or equal to 0.06
Reply text: Not met

Inquiry: # check: z-score of `COc1ccc(/C=N/NC(=O)c2nc(-c3ccccc3)cc(-c3ccccc3)n2)cc1OC` is greater than or equal to 0.06
Reply text: Met

Inquiry: # check: z-score of `CC(C)(C)NC(=O)C(=O)NNC(=O)c1ccccc1` is greater than or equal to 0.06
Reply text: Met

Inquiry: # check: z-score of COc1ccccc1C(OC(=O)c1ccco1)C(=O)NC(C)(C)C (configuration not stated) is greater than or equal to 0.06
Reply text: Not met

Inquiry: # check: z-score of `O=C(Nc1ccon1)c1ccc(Br)o1` is greater than or equal to 0.06
Reply text: Not met

Inquiry: # check: z-score of `CCNc1nc(NC#N)nc(SCC(=O)OCC)n1` is greater than or equal to 0.06
Reply text: Not met

Inquiry: # check: z-score of `COCCCNC(=O)Cn1ncc2ccsc2c1=O` is greater than or equal to 0.06
Reply text: Not met

Inquiry: # check: z-score of `COc1ccc(-n2c(COc3ccc4ccccc4c3)nnc2SCC(=O)NCc2ccco2)cc1` is greater than or equal to 0.06
Reply text: Met

---

systemName: Metabotropic glutamate receptor 8 (Rattus norvegicus) (UniProt P70579)
assaySummary: mGluR8 Gi/Go-coupled signaling modulation – cell-based, rat, thallium flux, HTS, primary screen (AID 488969)
runParameters: HEK293 rat mGluR8, GIRK (G protein-gated inwardly rectifying potassium channel) thallium flux, FluoZin2; at 10 µM; stronger effect = higher value; submaximal glutamate (EC20) added with thallium
The full ranking holds about 110,000 compounds; the median of “z-score” is about -0.1, and the highest 2% start at about 2. This excerpt belongs to a sample that is enriched for the highest values.
recordedMetric: z-score
Enter a number only.

Cc1nc2cc(C(=O)OCC(=O)Nc3cccc(Cl)c3)ccc2n1-c1ccccc1 ... 2.18
CCOC(=O)Cc1csc(NC(=O)CSc2nc3sc(C(=O)O)c(C)c3c(=O)[nH]2)n1 ... 0.0555
CC(=O)c1cccc(NC(=O)COC(=O)c2cccc(N3C(=O)c4ccccc4C3=O)c2)c1 ... 0.155

Inquiry: # query: z-score of entry `Cc1ccc(NC(=O)COC(=O)CNC(=O)c2cccc([N+](=O)[O-])c2)cc1S(=O)(=O)N1CCCCCC1`
Reply text: 0.745

Inquiry: # query: z-score of entry `CCn1c(SCc2ccc(C#N)cc2)nnc1-c1cccc(Cl)c1`
Reply text: -0.177

Inquiry: # query: z-score of entry `COc1ccccc1NC(=O)COC(=O)c1ccc2c(c1)nc(C)n2-c1ccccc1`
Reply text: -0.283
